# Protocol text: Cytotoxicity activity against human HepG2 cells assessed by CellTiter-Glo luminescent cell viability assay.
# Type: toxicity, cell-based
# Design: assay stage confirmatory assay, source tissue liver
# Setup conditions: HepG2 cells, read-out: IC50 relative
Active and inactive are the calls of the source. No rule for the calls is given here.
Just give me one of these, please: 1 = active, 0 = inactive

Record excerpt, results attached:
# Molecule, Class label
records = [
    ("COc1ccc(OC)c(C(=O)Nc2nc3ccccc3[nH]2)c1", 1),
    ("C[C@@H]1Oc2ccc(NC(=O)c3ccc(S(=O)(=O)NCc4ccco4)cc3)cc2NC1=O", 0),
]

Now look at this one.
Hey, what did the test say about CC1(C)CCC2=C(O1)c1ccccc1C(=O)C2=O ?
1
